Exercise: state measured pEC50 for each of the compounds provided.
System: Plasmodium falciparum
Assay overview: NOVARTIS: Inhibition of Plasmodium falciparum W2 (drug-resistant) proliferation in erythrocyte-based infection assay
Assay type: functional, organism-based
Protocol conditions: Plasmodium falciparum, W2; read-out: EC50
Answers are plain numbers, as −log10 of the molar value.

{"Compound": "CN(CCCNc1ccnc2cc(Cl)ccc12)C(=O)c1ccc(F)cc1", "Study system": "Plasmodium falciparum", "pEC50": 6.67}
{"Compound": "c1cc(C2=NCCN2)ccc1OCCCOc1ccc(C2=NCCN2)cc1", "Study system": "Plasmodium falciparum", "pEC50": 7.29}
{"Compound": "CCCOC(=O)C1=C(C)NC2=C(C(=O)CC(c3ccc(OC)c(OC)c3)C2)C1c1ccc(Br)cc1 (configuration not stated)", "Study system": "Plasmodium falciparum", "pEC50": 7.33}
{"Compound": "CN(CCCNc1ccnc2cc(Cl)ccc12)C(=O)C(C)(C)C", "Study system": "Plasmodium falciparum", "pEC50": 6.65}

Would you mind listing pEC50 for each of the following compounds?
1. CCN(CC)Cc1cc2ccc(C)cc2n(CC(=O)OC)c1=O
2. CC(=O)Nc1ccccc1OC(F)(F)F
3. Cc1onc(O)c1CC(N)C(=O)O (configuration not stated)
4. Cn1cnnc1SCC(=O)Nc1ccccc1C(F)(F)F
5. CCOC(=O)C1=C(C)NC2=C(C(=O)CC(c3ccc(OC)c(OC)c3)C2)C1c1cccc(Cl)c1Cl (configuration not stated)

Output:
7.57
6.33
6.52
5.93
7.52

====

System: Plasmodium falciparum
Assay overview: NOVARTIS: Inhibition of Plasmodium falciparum W2 (drug-resistant) proliferation in erythrocyte-based infection assay
Format: functional, organism-based
Protocol conditions: Plasmodium falciparum, W2; read-out: EC50
Peptide text beside a SMILES is read from it. * marks the point of attachment. Boc = CC(C)(C)OC(=O)*; OBn = c1ccc(CO*)cc1
Property name: pEC50
One number for each entry, as −log10 of the molar value.

Guide cases for pEC50, answers given:
{"Compound": "COc1cccc(-c2cncc(-c3cncc(OC)c3)n2)c1", "Reported value": 6.10}
{"Compound": "CC1=C(CC(=O)c2cccc([N+](=O)[O-])c2)C(=O)c2ccccc2C1=O", "Reported value": 5.76}
{"Compound": "O=C(NC1CC1)c1ccc(N2CCC(Cc3ccccc3)CC2)c([N+](=O)[O-])c1", "Reported value": 6.21}
{"Compound": "CN(C)CCNC(=S)Nc1cccc(C(F)(F)F)c1", "Reported value": 6.05}
{"Compound": "Cc1noc(-c2ccc(O)cc2O)c1-c1ccc2c(c1)OCCO2", "Reported value": 6.69}

Would you mind listing pEC50 for each of the following compounds?
1. Cn1nc(C(F)(F)F)c(-c2ccc(F)cc2)c1NC(=O)Nc1ccccc1
2. COc1cccc(C(=O)N(CCCC(C)Nc2cc(OC)cc3cccnc23)Cc2ccc(OC)c(OC)c2)c1 (stereo not drawn)
3. CCCCNC(=O)C(CC(C)C)N1C(=O)c2cc(NC(C)=O)ccc2NC(=O)[C@@H]1C (stereo partly drawn)

Output:
6.45
6.29
7.17

Would you mind listing pEC50 for each of the following compounds?
1. COC(CNc1cc(-c2ccccn2)nc(-c2ccccn2)n1)OC
2. O=C(Cn1c2ccccc2c(=O)c2cc(Cl)ccc21)Nc1cccc(C(F)(F)F)c1
3. CC[n+]1c(C)n(-c2ccccc2)c2ccc(C3Nc4ccccc4S3)cc21 (stereo not drawn)
4. O=C(COC(=O)c1ccccc1O)c1ccc(Br)cc1
5. Cc1cccc(NC(c2cccc(F)c2)c2ccc3cccnc3c2O)n1 (stereo not drawn)

Output:
6.20
5.78
6.13
5.74
6.06

Would you mind listing pEC50 for each of the following compounds?
1. O=C(NCCc1ccccc1)c1cnc(NCCCn2ccnc2)nc1NC1CCCC1
2. CC[n+]1c(/C=C/C=C2\N(C)c3ccccc3C2(C)C)n(-c2ccccc2)c2ccc(C)cc21
3. CCC(CC)C(=O)N1CCOc2c(cc(-c3csc4ccccc34)cc2OCc2ccccn2)C1

Output:
1. 5.77
2. 5.85
3. 6.00

Would you mind listing pEC50 for each of the following compounds?
1. O=C1C(=O)c2ncccc2-c2cccnc21
2. CCc1nc2nc(C)cc(NCCc3cccc(C)c3)n2n1
3. CC(C)CC(NC(=O)OC(C)(C)C)C(=O)NC(Cc1ccccc1)C(=O)OCc1ccccc1 (stereo not drawn) (Boc-Leu-Phe-OBn; configuration not given here)
4. N#Cc1ccc(-c2cnc(N)c(-c3ccc(C(N)=O)cc3)n2)cc1
5. COc1ccc(C2Nc3ccc4ccccc4c3C3=C2C(=O)CC(C)(C)C3)cc1Br (stereo not drawn)
6. CCN(CC)C/C=C/C1(O)c2ccccc2-c2ccccc21

Output:
[6.43, 6.34, 5.53, 7.00, 6.19, 6.66]

Would you mind listing pEC50 for each of the following compounds?
1. CN(C)CC(C)(C)CNCc1cc(-c2ccccc2)ccc1O
2. CCOC(=O)c1cnc2ccc(OC)cc2c1O
3. COc1cc(/C=C(\C#N)c2nc3ccccc3[nH]2)ccc1OCc1ccccc1
4. NC(=NOC(=O)c1ccccc1I)c1ccccn1

Output:
8.19
5.89
5.92
6.08

Would you mind listing pEC50 for each of the following compounds?
1. O=S(=O)(ON=C1CCCc2sc(Cl)cc21)c1ccccc1
2. CCC(=O)N1CCc2cc(Br)cc(S(=O)(=O)N3CC(C)CC(C)C3)c21 (stereo not drawn)
3. COc1cc(C=C(C#N)c2nc3ccccc3[nH]2)ccc1OCc1ccc(Cl)cc1
4. Cc1ccc(C)c(N2CCN(CCCNC(=O)c3ccc(CSc4nc5cnccc5[nH]4)cc3)CC2)c1

Output:
1: 7.39; 2: 5.93; 3: 5.80; 4: 6.72

Would you mind listing pEC50 for each of the following compounds?
1. O=C(Nc1cc(C(F)(F)F)ccc1N1CCOCC1)C(Cl)(Cl)Cl
2. COC(=O)c1ccc(N(C(=O)Cc2c[nH]c3ccccc23)C(C(=O)NC2CCCCC2)c2cccnc2)cc1 (stereo not drawn)
3. CN(C)/C=C1\Oc2ccccc2N=C1Cl

Output:
1. 6.93
2. 6.88
3. 6.88

Would you mind listing pEC50 for each of the following compounds?
1. O=C(Nc1ccc(Cl)cc1)N1CCN(c2ccc3nncn3n2)CC1
2. Cc1cc(C)cc(NCC(O)Cn2c3ccc(Cl)cc3c3cc(Cl)ccc32)c1 (stereo not drawn)

Output:
1: 5.86; 2: 6.24

Would you mind listing pEC50 for each of the following compounds?
1. O=C(C1CC1)N1CCc2cc(Br)cc(S(=O)(=O)N3CCCC3)c21
2. COc1cc(-c2nc(-c3ccc(C)c(C)c3)c(-c3ccc(C)c(C)c3)[nH]2)cc(OC)c1O

Output:
1. 5.95
2. 6.88

====

Exercise: state measured CC50 for each of the compounds provided.
Assay overview: NOVARTIS: Cytotoxicity against human hepatocellular carcinoma cell line (Huh7)
Type: toxicity, cell-based, Huh-7
Protocol conditions: Huh7 cells (hepatocellular carcinoma cell line)

{"Compound": "O=C(Nc1ccc2c(c1)OCO2)c1cc2cc(C3(O)CCN(CCCc4ccccc4)CC3)ccc2o1", "CC50": "6.32 µM"}
{"Compound": "COC(=O)C1=C(C)NC2=C(C(=O)CC(c3ccc(OC)c(OC)c3)C2)C1c1cccc(O)c1 (stereo not given)", "CC50": "> 100 µM"}
{"Compound": "COc1ccc(C2Nc3ccc(C(C)=O)cc3C3C=CCC32)cc1[N+](=O)[O-] (stereo not given)", "CC50": "> 100 µM"}
{"Compound": "CCCn1c(C(CC)N2CCNCC2)nc2ccccc2c1=O (stereo not given)", "CC50": "> 10 µM"}
{"Compound": "O=C(O)[C@@H]1C[C@H](CP(=O)(O)O)CCN1", "CC50": "> 5.06 µM"}
{"Compound": "O=C(Nc1cc(Cl)cc(Cl)c1)Nc1cccc(C(F)(F)F)c1", "CC50": "14.9 µM"}

Would you mind listing CC50 for each of the following compounds?
1. O=c1[nH]nc(SCc2c(F)cccc2[N+](=O)[O-])c(=O)[nH]1
2. Cc1cc(C)c2c(c1)c(-c1ccccc1)c(-c1ccccc1)n2CC(O)Cn1cnc(-c2ccccc2)c1-c1ccccc1 (stereo not given)
3. CCCCCCCn1c(=N)n(CC(O)c2ccc(Cl)c(Cl)c2)c2ccccc21 (stereo not given)
4. Cc1ccc(Sc2cc(C(=O)NCc3ccco3)c3ccccc3n2)cc1
5. CC(C)CCNC(=O)CN1C(=O)c2cccnc2Oc2ccccc21
6. CN(C)CCNC(=O)c1ccc(-c2cncc(NCc3ccc(Cl)c(Cl)c3)c2)cc1

Output:
1: > 10 µM; 2: > 100 µM; 3: 6.5 µM; 4: > 100 µM; 5: > 100 µM; 6: 10.3 µM

====

Tested on: Plasmodium falciparum
Assay overview: NOVARTIS: Inhibition of Plasmodium falciparum W2 (drug-resistant) proliferation in erythrocyte-based infection assay
Type: functional, organism-based
Protocol conditions: Plasmodium falciparum, W2; read-out: EC50
Exercise: state measured log10 of EC50 for each of the compounds provided.
Heads up: the numbers are on a log10 scale; they represent EC50 in nM.

Guide cases for log10 of EC50, answers given:
{"Compound": "Cc1ccccc1Cn1c(N2CCC(C(=O)NCc3ccccn3)CC2)nc2ccccc21", "Reported value": 3.33}
{"Compound": "CCn1c(=NC(=O)c2cc(=O)c3ccccc3o2)sc2c(OC)ccc(OC)c21", "Reported value": 1.75}
{"Compound": "COc1ccc2c(c1)c1c3n2CCN(Cc2ccccc2)C3=[N+](C)CC1", "Reported value": 3.13}
{"Compound": "Cc1cc2c(cc1S(=O)(=O)N1CCCCC1C)OCC(=O)N2 (centres undefined)", "Reported value": 2.70}
{"Compound": "CCCn1cc(SCC(=O)NCc2ccco2)c2ccccc21", "Reported value": 2.83}
{"Compound": "COc1ccc2c(c1OC)C(=O)N1c3ccccc3N=C(c3ccc(I)cc3)CC21 (centres undefined)", "Reported value": 2.35}
{"Compound": "O=C(NC(=S)Nc1ccc(NC(=O)c2cccs2)cc1)c1ccco1", "Reported value": 2.49}
{"Compound": "O=C(Nc1ccc(-c2nc3cc(NC(=O)C(c4ccccc4)c4ccccc4)ccc3[nH]2)cc1)C(c1ccccc1)c1ccccc1", "Reported value": 3.57}
{"Compound": "CCOc1ccc(N(CC)S(=O)(=O)c2cc(Br)cc3c2N(C(C)=O)CC3)cc1", "Reported value": 1.88}
{"Compound": "Cc1nc2ccc(NC(=O)C3CC3)cc2c(=O)n1Cc1ccc(Cl)cc1", "Reported value": 3.26}

Would you mind listing log10 of EC50 for each of the following compounds?
1. CCC(C)(C)c1ccc(Oc2ccc(NC(=O)c3ccc([N+](=O)[O-])o3)cc2)cc1
2. c1ccc2cc3c(N4CCN(CCN5CCN(c6ccnc7cc8ccccc8cc67)CC5)CC4)ccnc3cc2c1
3. COc1ccc([N+](=O)[O-])cc1N(CC1CO1)S(=O)(=O)c1ccc(C)cc1 (centres undefined)

Output:
3.81
2.36
3.82

Simply: CN(C)c1ccc(N=Cc2ccc(N3CCOCC3)cc2)cc1 , Plasmodium falciparum, log10 of EC50 = 2.37
